TARGET ENTITY: T1, HLA-A*0201 HLA class I MHC monomer (iTopia Epitope Discovery System, coated on plate) (human)
T1 construct: Placeholder peptide stripped; also called HLA-A2; MHC class I monomer
RUN DESCRIPTION: iTopia EDS affinity assay; peptide titration, printed as Affinity (ED50)
PROPERTY MEASURED: EC50 (nM)
Your answer is read as nM, so omit the unit and give the number.

Some binders with known EC50 results, for comparison:
- BINDER: "DQNLWHIGR (Synthetic nonapeptide of human nectin4; the range counts on nectin4) [Nectin4 peptide 255 (DQNLWHIGR)]"
  EC50 / nM: 500
- BINDER: "SMNGQPLTC (Synthetic nonapeptide of human nectin4; the range counts on nectin4) [Nectin4 peptide 215 (SMNGQPLTC)]"
  EC50 / nM: 700
- BINDER: "VLVPPLPSL (Synthetic nonapeptide of human nectin4; the range counts on nectin4) [antigen peptide N4-145 (VLVPPLPSL)]"
  EC50 / nM: 500

[in] Fill in the blank: the reported EC50 of AALLFCLLV (Synthetic nonapeptide of human nectin4; the range counts on nectin4) [Nectin4 peptide 357 (AALLFCLLV)] is ____.
[out] 100

[in] Fill in the blank: the reported EC50 of RSYSTLTTV (Synthetic nonapeptide of human nectin4; the range counts on nectin4) [Nectin4 peptide 443 (RSYSTLTTV)] is ____.
[out] 300

// data source = patent US20140178394A1
